B1: EHEE_rd2_0191 (parent)
chain: TTEYTFTDDEEARRAIEELKKRGLTFRYEKHGTTWRVRVD

Variants of: B1
Experiment: folding stability dG (cDNA display proteolysis); higher = more stable
Conditions: PBS, room temperature
// label = Yes if folding stability dG is not less than 2 kcal/mol, otherwise No

   mutant_code  assigned_class
0          D9Q              No
1         R36V             Yes
2         K30L              No
3         G23Q              No

Could you please find out whether `D9N` has folding stability dG that meets 2 kcal/mol or exceeds it? No

Could you please find out whether `T5I` has folding stability dG that meets 2 kcal/mol or exceeds it? Yes

Could you please find out whether `R22H` has folding stability dG that meets 2 kcal/mol or exceeds it? No

Could you please find out whether `D40Y` has folding stability dG that meets 2 kcal/mol or exceeds it? Yes

Could you please find out whether `R14H` has folding stability dG that meets 2 kcal/mol or exceeds it? No

Could you please find out whether `G32F` has folding stability dG that meets 2 kcal/mol or exceeds it? No
